- System: S. cerevisiae BY4741 (wild-type), vegetative growth in YPD
- PROTOCOL DESCRIPTION: growth sensitivity score (doubling time z-score vs DMSO controls); higher = slower growth, strongly negative scores also mark growth inhibition (complete suppression), active = hit call of the paper
Counter-ions that a name gives are not always drawn.
Listing of recorded growth sensitivity score by entry.
OBSERVATION TYPE: growth sensitivity score

COMPOUND: Cc1sc(N)c(C(=O)c2cccc(C(F)(F)F)c2)c1C (stock concentration (mM, diluted 1:100): 10)
ASSAY VALUE: 9.52

COMPOUND: c1cnc(N2CCN(Cc3ccc4c(c3)OCO4)CC2)nc1 [Piribedil] (stock concentration (mM, diluted 1:100): 9.7)
ASSAY VALUE: 1.65

COMPOUND: C/C=C1\[C@H]2C=C(C)C[C@]1(N)c1ccc(=O)[nH]c1C2 [Huperzine a] (stock concentration (mM, diluted 1:100): 10)
ASSAY VALUE: -1.79

COMPOUND: CNCCCCOc1ccccc1Cc1ccccc1 [Bifemelane] (stock concentration (mM, diluted 1:100): 10)
ASSAY VALUE: 3.54

COMPOUND: O=C(O)c1cc(/N=N/c2ccc(S(=O)(=O)Nc3ccccn3)cc2)ccc1O [Sulfasalazine] (stock concentration (mM, diluted 1:100): 10)
ASSAY VALUE: -2.26

COMPOUND: NC(=O)c1cccnc1 [Nicotinamide] (stock concentration (mM, diluted 1:100): 10)
ASSAY VALUE: -0.49

COMPOUND: O=C1CC2(CCCC2)CC(=O)N1CCNCC1COc2ccccc2O1 (configuration not stated) (stock concentration (mM, diluted 1:100): 10)
ASSAY VALUE: 1.45

COMPOUND: OCCOCCN1CCN(C2=Nc3ccccc3Sc3ccccc32)CC1 [Quetiapine hemifumarate] (stock concentration (mM, diluted 1:100): 7.7)
ASSAY VALUE: 1.12

COMPOUND: COc1ccccc1OCC(O)CN1CCN(CC(=O)Nc2c(C)cccc2C)CC1 (configuration not stated) [Ranolazine dihydrochloride] (stock concentration (mM, diluted 1:100): 8.6)
ASSAY VALUE: -0.31

COMPOUND: Cn1c(NCCN(CCO)CCCc2ccc([N+](=O)[O-])cc2)cc(=O)n(C)c1=O [Nifekalant hydrochloride] (stock concentration (mM, diluted 1:100): 9.2)
ASSAY VALUE: -0.07

COMPOUND: CCc1c2c(nc3ccc(OC(=O)N4CCC(N5CCCCC5)CC4)cc13)-c1cc3c(c(=O)n1C2)COC(=O)[C@]3(O)CC [Irinotecan hydrochloride] (stock concentration (mM, diluted 1:100): 8.7)
ASSAY VALUE: -1.27

COMPOUND: CN1C(=O)CC[C@H]1c1cccnc1 [Cotinine] (stock concentration (mM, diluted 1:100): 10)
ASSAY VALUE: 0.49

----------
- Test system: S. cerevisiae SK1 pCDA2-eGFP (USY613), sporulating;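 further: active if sensitivity score above 5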
- PROTOCOL DESCRIPTION: CDA2-GFP sporulation assay sensitivity score (z-score vs DMSO controls); higher = stronger inhibition of sporulation, active = hit call of the paper
Binary classification by CDA2-GFP sporulation assay sensitivity score, with 0.5 as an inclusive lower bound for YES; all other cases are NO.

MOLECULE: OC[C@H]1O[C@@H](Oc2cc(O)cc(/C=C/c3ccc(O)cc3)c2)[C@H](O)[C@@H](O)[C@@H]1O [Piceid] (stock concentration (mM, diluted 1:100): 10)
LABEL CLASS: YES
--
MOLECULE: O=c1ncc(F)c[nH]1 [5-Fluoro-2-Pyrimidone] (stock concentration (mM, diluted 1:100): 10)
LABEL CLASS: YES
--
MOLECULE: Cc1cn([C@H]2C=C[C@@H](CO)O2)c(=O)[nH]c1=O [Stavudine] (stock concentration (mM, diluted 1:100): 10)
LABEL CLASS: NO
--
MOLECULE: Cc1occc(=O)c1O [Maltol] (stock concentration (mM, diluted 1:100): 10)
LABEL CLASS: YES
--
MOLECULE: COCCOC(=O)C1=C(C)NC(C)=C(C(=O)OC(C)C)C1c1cccc([N+](=O)[O-])c1 (stereo unspecified) [Nimodipine] (stock concentration (mM, diluted 1:100): 10)
LABEL CLASS: NO
--
MOLECULE: CCC(=O)NS(=O)(=O)c1ccc(-c2c(-c3ccccc3)noc2C)cc1 [Parecoxib] (stock concentration (mM, diluted 1:100): 9.8)
LABEL CLASS: YES
